Target: HLA-A*02 (human)
Experiment: UV-exchange b2m ELISA
# peptide exchange yield listing for each entry below

Worked set:
[[record]]
binder = "TLLQRLTEV"
meas_value = "50 to 75%"

[[record]]
binder = "YTLDIPVLFGV"
meas_value = "> 75%"

[[record]]
binder = "ALLPRLHQL"
meas_value = "> 75%"


Which peptide exchange yield value belongs to SLSNRLYYL ?
50 to 75%
